SUBJECT_OF_TEST: muscarinic binding site
MEASUREMENT_PROTOCOL: inhibition of specific binding at the muscarinic binding site
pIC50: −log10 of the molar value.
Please mark condition met if the recorded pIC50 is equal to or greater than 6, and condition not met if it falls below.

# COMPOUND, CLASS_ASSIGNMENT
measured = [
    ("CCN1CC=C(c2ccccc2)C(C(=O)OCc2ccccc2)C1 (racemic) [Example 62]", "condition met"),
    ("CCN1CCC(c2ccccc2)=C(C(=O)N(CC)CC)C1 [Example 25]", "condition not met"),
    ("CCCN1CCC(c2ccccc2)=C(C(=O)NC2CCCCC2)C1 [Example 55]", "condition not met"),
    ("CCN1CCC(c2ccc(Cl)c(Cl)c2)=C(C(=O)OC)C1 [Example 19]", "condition not met"),
]

Task item: Check if pIC50 >= 6 (inclusive). Item: CCCN1CCC(c2ccccc2)=C(C(=O)NCc2ccccc2)C1 [Example 46]
Reply: condition not met
